quantity-kind: pIC50
Friendly reminder that pIC50 comes from taking -log10 of the concentration in mol/L.

Under HDAC3 (Homo sapiens): report pIC50 of CCCNNC(=O)c1ccc(CNC(=O)c2ccccc2-c2c3ccc(=N)cc-3oc3cc(N)ccc23)cc1 [LL65, 2,2,2-trifluoroacetate] . 7.44

Give pIC50 for this entry on HDAC3 (Homo sapiens): N=c1ccc2c(-c3ccccc3C(=O)NCc3ccc(C(=O)Nc4ccccc4N)cc3)c3ccc(N)cc3oc-2c1 [LL66, 2,2,2-trifluoroacetate] 6.45

# return pIC50 of N=c1ccc2c(-c3ccccc3C(=O)NCCCCCC(=O)Nc3ccccc3N)c3ccc(N)cc3oc-2c1 [LL38, 2,2,2-trifluoroacetate] (system: HDAC3 (Homo sapiens)) 6.74

State the measured pIC50 (HDAC3 (Homo sapiens)) of N=c1ccc2c(-c3ccccc3C(=O)NCCCCCCC(=O)Nc3ccccc3N)c3ccc(N)cc3oc-2c1 [LL45, 2,2,2-trifluoroacetate] 7.26

Lab note: HDAC3 (Homo sapiens) assay, enter pIC50 for CCCNNC(=O)c1ccc(CNC(=O)CNC(=O)c2ccccc2-c2c3ccc(=N)cc-3oc3cc(N)ccc23)cc1 [LL115, 2,2,2-trifluoroacetate] here 8.30

Quote HDAC3 (Homo sapiens) pIC50 for entry CCCNNC(=O)CCCCCCNC(=O)c1ccccc1-c1c2ccc(=N)cc-2oc2cc(N)ccc12 [LL142, 2,2,2-trifluoroacetate] . 8.22

Supply pIC50 measured with HDAC3 (Homo sapiens) for N=c1ccc2c(-c3ccccc3C(=O)NCCCCCCCC(=O)Nc3ccccc3N)c3ccc(N)cc3oc-2c1 [LL130, 2,2,2-trifluoroacetate] . 6.82

Report pIC50 under test system HDAC3 (Homo sapiens) for CCCNNC(=O)c1ccc(NC(=O)CNC(=O)c2ccccc2-c2c3ccc(=N)cc-3oc3cc(N)ccc23)cc1 [LL162, 2,2,2-trifluoroacetate] . 8.15
